Tested on: Proteus mirabilis ATCC 25933
METHOD_NOTES: Antibacterial activity MIC, two-fold agar dilution
Format: cell-based
ASSAY_SETUP: ATCC25933; Proteus mirabilis ATCC 25933; Muller-Hinton agar, 37° C., 20 hours; read-out: Antibacterial Activity MIC
ASSAY_READOUT: MIC

INSERT INTO assay_data (molecule, assay_readout, result) VALUES
  ('CO/N=C(\C(=O)N[C@@H]1C(=O)N2C(C(=O)[O-])=C(CSc3cc(N)[n+](C)c(N)n3)CS[C@H]12)c1csc(N)n1', 'MIC', '0.5 µg/mL'),
  ('CC[n+]1c(N)cc(SCC2=C(C(=O)[O-])N3C(=O)[C@@H](NC(=O)/C(=N\OC)c4csc(N)n4)[C@H]3SC2)nc1N', 'MIC', '0.25 µg/mL'),
  ('CC[n+]1c(N)nc(N)nc1SCC1=C(C(=O)[O-])N2C(=O)C(NC(=O)/C(=N\OC(C)(C)C(=O)O)c3csc(N)n3)[C@H]2SC1 (stereo partly drawn)', 'MIC', '0.063 µg/mL'),
  ('C[n+]1c(SCC2=C(C(=O)[O-])N3C(=O)[C@@H](NC(=O)/C(=N\OC(C)(C)C(=O)O)c4csc(N)n4)[C@H]3SC2)cc(N)nc1N', 'MIC', '0.31 µg/mL'),
  ('CC[n+]1c(N)cc(SCC2=C(C(=O)[O-])N3C(=O)[C@@H](NC(=O)/C(=N\OC(C)C(=O)O)c4csc(N)n4)[C@H]3SC2)nc1N (stereo partly drawn)', 'MIC', '0.063 µg/mL'),
  ('CC(O/N=C(\C(=O)N[C@@H]1C(=O)N2C(C(=O)[O-])=C(CSc3cc(N)[n+](C)c(N)n3)CS[C@H]12)c1csc(N)n1)C(=O)O (stereo partly drawn)', 'MIC', '0.13 µg/mL');

Data credit: patent US5292733A
